Exercise: for every item that follows, state its recorded log10 TGI.
System: SF-539 CNS
Test: NCI tumour cell line growth inhibition, 48 h
The base-10 logarithm of TGI, taken with TGI in µM, is what appears here.

Solved cases below.
COc1ccc(Nc2c3c4c(cccc4[nH]c2=O)C(=O)c2ccccc2-3)cc1	-1.16
O=C(c1ccccc1)c1ccc(Cl)c([N+](=O)[O-])c1	1.28
Fc1ccc(CNc2c3ccccc3nc3ccccc23)cc1	0.76
COc1ccc(-c2nc(N(C)C)c3ccccc3n2)cc1	1.63
CC1(C)Cc2cccc(OCC(O)CN3CCN(c4ccc(F)cc4)CC3)c2O1 (stereo not drawn)	1.44

Give measured log10 TGI for every item shown.
1. Cn1c(=O)nc2n(-c3ccc(F)cc3)c3ccccc3nc-2c1=O
2. COc1cc(C2c3cc4c(cc3OC3(O)COC(=O)C23)OCO4)cc(OC)c1OC (stereo not drawn)
3. Nc1ccccc1/C=N\Nc1ccccc1
4. O=C(CCc1nnc(-c2c(Cl)cccc2Cl)o1)c1nc2ccccc2[nH]1

// result
1.67
1.90
0.85
1.60

// query Under SF-539 CNS, report log10 TGI for COc1cc(C(=O)NC2CCN(C)CC2)ccc1Nc1ncc2c(n1)N(C1CCCC1)CC(F)(F)C(=O)N2C
// result 0.71

----------
Tested on: ACHN renal
Experiment: NCI tumour cell line growth inhibition, 48 h; in the data active = GI50 below about 0.43 µM; inactive = the rest
The reply should be one of these categories: active, inactive

Consider the worked cases shown below.
CC1(C)CC[C@]2(C(=O)n3ccnc3)CC[C@]3(C)[C@H](C(=O)C=C4[C@@]5(C)C=C(C#N)C(=O)C(C)(C)[C@@H]5CC[C@]43C)[C@@H]2C1	active
COC1OCC(OS(=O)(=O)c2ccc(C)cc2)C(OC(=O)c2ccccc2)C1OC(=O)c1ccccc1 (stereo unspecified)	inactive
CC1(C)Cc2cccc(OCC(O)CN3CCN(c4ccc(F)cc4)CC3)c2O1 (stereo unspecified)	inactive
C[As](C)Sc1ccnc(S[As](C)C)n1	inactive
CN(C)c1ccc(/C=C(\C#N)c2cc3ccccc3n2C)cc1	active

// query Recorded call for C=C1C(=O)O[C@H]2[C@H]1CC/C(COC(=O)/C=C\C(=O)NCc1ccc(Cn3c(=O)sn(-c4ccc(OC)cc4)c3=O)cc1)=C\CC[C@@]1(C)O[C@@H]21 ?
// result inactive

// query Recorded call for CCOCCc1c(O)nc(SC)[nH]c1=O ?
// result inactive

// query Recorded call for C#CC[C@@H]1C[C@]2(C)[C@H]3CC[C@@H]4[C@H]5[C@H](C(=C)C)CC[C@]5(C(=O)O)CC[C@@]4(C)[C@]3(C)CC[C@H]2C(C)(C)[C@H]1O ?
// result inactive

// query Recorded call for CCOC(=O)c1c[nH]c2c(OCc3ccccc3)c3ccccc3c(O)c2c1=O ?
// result inactive

// query Recorded call for COc1ccc(C(=O)C(c2ccc(OC)cc2)C2C(=O)Oc3ccccc32)cc1 (stereo unspecified) ?
// result inactive

// query Recorded call for O=C(CCc1nnc(-c2c(Cl)cccc2Cl)o1)c1nc2ccccc2[nH]1 ?
// result inactive

// query Recorded call for O=C(/C=C/c1ccccn1)c1ccccc1O ?
// result inactive

// query Recorded call for Nc1ccccc1/C=N\Nc1ccccc1 ?
// result inactive

// query Recorded call for O=C(N/N=C/c1coc2ccc(Cl)cc2c1=O)c1ccncc1 ?
// result inactive

// query Recorded call for COc1ccc2nc3cccc([N+](=O)[O-])c3c(NCCN(CCO)CCO)c2c1 ?
// result active

// query Recorded call for O=C1Nc2cc(Cl)ccc2Oc2cc(Oc3ccccc3)ccc21 ?
// result inactive

----------
Tested on: COLO 205 colon
Assay: NCI tumour cell line growth inhibition, 48 h
Endpoint Name: TGI (µM)
One number for each entry, in µM.

Solved cases below.
O=C1C=C(c2c(-c3ccccc3)[nH]c3ccccc23)C(=O)N1c1ccccc1	24.5
COC(=O)c1cc(C)n2c1CS[C@@H]2c1ccccc1	80
CN(C)c1ccc(/C=C(\C#N)c2cc3ccccc3n2C)cc1	1.72
Fc1ccc(CNc2c3ccccc3nc3ccccc23)cc1	3.7
CC(C)(C)c1ccc(-c2nc3ccccc3c(=O)o2)cc1	78.7

Give measured TGI for every item shown.
1. CCCCCCCCCCCCOC1C(CNC(=O)C2OC3OC(C)(C)OC3C2NC(=O)CN2CCN(c3ccccn3)CC2)OC2OC(C)(C)OC21 (stereo not given)
2. CC(C)=CCC[C@](C)(O)[C@H]1CC[C@]2(C)[C@@H]1[C@H](O)C[C@@H]1[C@@]3(C)CC[C@H](O[C@@H]4O[C@H](CO)[C@@H](O)[C@H](O)[C@H]4O)C(C)(C)[C@@H]3CC[C@]12C
3. COc1ccc(-c2nc(N(C)C)c3ccccc3n2)cc1
4. CCCCCCCCCCCC1=NC(C)(C)CN1CCO

// result
1. 5.01
2. 37.3
3. 29.6
4. 3.45

----------
Tested on: SR leukemia
Assay: NCI tumour cell line growth inhibition, 48 h; in the data active = GI50 below about 0.43 µM; inactive = the rest
The reply should be one of these categories: active, inactive

O=C(CCCCC(=O)N/N=C\c1ccccc1Cl)N/N=C\c1ccccc1Cl	inactive

// query Recorded call for O=C(Nc1ncc(Cc2ccccc2)s1)c1ccc2c(c1)OCCO2 ?
// result active

// query Recorded call for COc1ccc(-c2cc(-c3ccc(O)cc3)nc3nc(=S)[nH]c(N)c23)cc1 ?
// result inactive

// query Recorded call for O=C(/C=C/c1ccccn1)c1ccccc1O ?
// result inactive

// query Recorded call for CC(C)c1ccc2c(N=Nc3ccc(S(N)(=O)=O)cc3)c(O)[nH]c2c1 ?
// result inactive

// query Recorded call for CN(C)c1ccc(/C=C(\C#N)c2cc3ccccc3n2C)cc1 ?
// result active

// query Recorded call for O=C1Nc2cc(Cl)ccc2Oc2cc(Oc3ccccc3)ccc21 ?
// result inactive

// query Recorded call for COc1cc(C(=O)NC2CCN(C)CC2)ccc1Nc1ncc2c(n1)N(C1CCCC1)CC(F)(F)C(=O)N2C ?
// result active

// query Recorded call for C=C1C(=O)O[C@H]2[C@H]1CC/C(COC(=O)/C=C\C(=O)NCc1ccc(Cn3c(=O)sn(-c4ccc(OC)cc4)c3=O)cc1)=C\CC[C@@]1(C)O[C@@H]21 ?
// result active

// query Recorded call for C#CC[C@@H]1C[C@]2(C)[C@H]3CC[C@@H]4[C@H]5[C@H](C(=C)C)CC[C@]5(C(=O)O)CC[C@@]4(C)[C@]3(C)CC[C@H]2C(C)(C)[C@H]1O ?
// result inactive

// query Recorded call for O=C(CSc1nc2ccc([N+](=O)[O-])cc2[nH]1)Nc1cccc(Cl)c1 ?
// result inactive

----------
Exercise: for every item that follows, state its recorded TGI.
System: DU-145 prostate
Experiment: NCI tumour cell line growth inhibition, 48 h

CC(C)(C)C(=O)OCOP(=O)(OCOC(=O)C(C)(C)C)C1CCCN(OC(=O)c2ccccc2)C1=O (stereo not drawn)	> 100 µM
Cc1[nH]c2ncn3ncnc3c2c1Cc1ccccc1	> 100 µM
C=CCCC(O)c1ccc(C(O)CCCCCCCCCCCC)o1 (stereo not drawn)	46.9 µM
CN1C[C@H]2[C@@H](C1=O)[C@H](c1ccc([N+](=O)[O-])cc1)ON2C	> 100 µM
CC(C)c1ccc2c(N=Nc3ccc(S(N)(=O)=O)cc3)c(O)[nH]c2c1	> 25 µM
CC(Oc1ccccc1)C(=O)NN (stereo not drawn)	> 100 µM
Cn1c(=O)oc2cc(C(=S)N3CCC(Cc4ccccc4)CC3)ccc21	> 100 µM
O=C(Cn1c(C(=O)/C=C/c2ccco2)nc2ccccc21)c1ccc(Cl)cc1	> 100 µM
O=c1[nH]c(=O)n(C2CC(O)C(COP(=O)(O)OC3CC(n4cc(F)c(=O)[nH]c4=O)OC3COP(=O)(O)OC3CC(n4cc(F)c(=O)[nH]c4=O)OC3COP(=O)(O)OC3CC(n4cc(F)c(=O)[nH]c4=O)OC3COP(=O)(O)OC3CC(n4cc(F)c(=O)[nH]c4=O)OC3COP(=O)(O)OC3CC(n4cc(F)c(=O)[nH]c4=O)OC3COP(=O)(O)OC3CC(n4cc(F)c(=O)[nH]c4=O)OC3COP(=O)(O)OC3CC(n4cc(F)c(=O)[nH]c4=O)OC3COP(=O)(O)OC3CC(n4cc(F)c(=O)[nH]c4=O)OC3COP(=O)(O)OC3CC(n4cc(F)c(=O)[nH]c4=O)OC3CO)O2)cc1F (stereo not drawn)	> 50 µM
COC(=O)c1ccccc1/C=C1\Cc2cc3c(cc2C1=O)CCC3	> 100 µM

Give measured TGI for every item shown.
1. Nc1ccccc1/C=N\Nc1ccccc1
2. CSC(=NC1CC(n2cc(C)c(=O)[nH]c2=O)OC1CO)NC#N (stereo not drawn)
3. COc1ccc2c(CC(=O)O)cc(=O)oc2c1
4. O=C1NCC2(CCN(Cc3ccccc3)CC2)N1
5. O=C(Nc1ccc(Cl)c(Cl)c1)C(=O)C(C1OC(=O)c2ccccc21)[N+](=O)[O-] (stereo not drawn)

// result
> 100 µM
> 100 µM
> 100 µM
> 100 µM
> 100 µM

Give measured TGI for every item shown.
1. O=C(CCCCC(=O)N/N=C\c1ccccc1Cl)N/N=C\c1ccccc1Cl
2. C[C@H](CCC(=O)O[C@@H]1CC[C@@]2(C)C(CC[C@H]3[C@@H]4CC[C@H]([C@H](C)CCc5nc6ccccc6[nH]5)[C@@]4(C)CC[C@@H]32)C1)[C@H]1CC[C@H]2[C@@H]3CCC4C[C@H](O)CC[C@]4(C)[C@H]3CC[C@]12C (stereo partly drawn)
3. CCCn1cc(C2=C(c3cn(C)c4ccccc34)C(=O)NC2=O)c2ccccc21
4. CCCCCCCCCCCC1=NC(C)(C)CN1CCO

// result
["> 100 µM", "> 100 µM", "> 22.4 µM", "21.9 µM"]

Give measured TGI for every item shown.
1. CCOC(=O)c1c[nH]c2c(OCc3ccccc3)c3ccccc3c(O)c2c1=O
2. C[As](C)Sc1ccnc(S[As](C)C)n1
3. COc1ccc(Nc2c3c4c(cccc4[nH]c2=O)C(=O)c2ccccc2-3)cc1
4. Fc1ccc(CNc2c3ccccc3nc3ccccc23)cc1
5. COc1ccc(C2=NN(C(=O)c3ccccc3)C(O)(c3cc(F)c(Cl)cc3Cl)C2)cc1OC (stereo not drawn)
6. Fc1ccc(-c2ncn(C3CCNCC3)c2-c2ccnc(Oc3ccccc3)n2)cc1

// result
["> 74.2 µM", "> 39.7 µM", "0.0467 µM", "11.3 µM", "> 100 µM", "> 25 µM"]
